assayRemarks: physchem
Assay type: physicochemical
conditionLabel: deionized water, water
Counter-ions that a name gives are not always drawn.
experimentalEndpoint: solubility (mg/mL)
Give bare numbers, in mg/mL.

Briefly, solubility measured for CO[C@@]12CC[C@@]3(C[C@@H]1[C@](C)(O)C(C)(C)C)[C@H]1Cc4ccc(O)c5c4[C@@]3(CCN1CC1CC1)[C@H]2O5 [Buprenorphine HCl] : 12

----------
assayRemarks: physchem
Assay type: physicochemical
conditionLabel: organic solvent or mixture; Transcutol, 32° C.; read-out: Solubility
experimentalEndpoint: solubility (mg/mL)
Numbers only, in mg/mL.

Recorded solubility (compound `CO[C@]12CC[C@@]3(C[C@@H]1[C@](C)(O)C(C)(C)C)[C@H]1Cc4ccc(O)c5c4[C@@]3(CCN1CC1CC1)[C@H]2O5` ): 88.6

----------
assayRemarks: physchem
Assay type: physicochemical
conditionLabel: equilibrium pH 8.7, 32° C.; read-out: Cs
Protocol: Solubility Determination: The solubility of buprenorphine base and HCl salt in various vehicles was obtained by equilibrating a large excess of solute with the vehicle in a water-jacketed glass container. Temperature was maintained at 32° C. by a constant temperature water bath and vigorous mixing with a magnetic stirring bar. Equilibrium time for all the studies was ≥48 hr. […] The procedure was repeated three times and an average value calculated.
experimentalEndpoint: solubility thermodynamic (µg/mL)
Numbers only, in µg/mL.

Summary for this compound, `CO[C@]12CC[C@@]3(C[C@@H]1[C@](C)(O)C(C)(C)C)[C@H]1Cc4ccc(O)c5c4[C@@]3(CCN1CC1CC1)[C@H]2O5` : solubility thermodynamic is 0.14

----------
assayRemarks: pKa
Format: physicochemical
experimentalEndpoint: pKa
One number for each entry.

Kindly note the recorded pKa for `CO[C@]12CC[C@@]3(C[C@@H]1[C@](C)(O)C(C)(C)C)[C@H]1Cc4ccc(O)c5c4[C@@]3(CCN1CC1CC1)[C@H]2O5` , which is 8.4

----------
assayRemarks: physchem
Assay type: physicochemical
conditionLabel: organic solvent or mixture; Propylene glycol-monolaurate, 32° C.; read-out: Solubility
experimentalEndpoint: solubility (mg/mL)
Answers are plain numbers, in mg/mL.

For this compound ( `CO[C@]12CC[C@@]3(C[C@@H]1[C@](C)(O)C(C)(C)C)[C@H]1Cc4ccc(O)c5c4[C@@]3(CCN1CC1CC1)[C@H]2O5` ), measured solubility is 37.9

----------
assayRemarks: in vitro
Type: in vitro ADME, Human
conditionLabel: human; equilibrium pH 8.7, 32° C.; P = J/Cs; read-out: P (permeability coefficient) (converted)
experimentalEndpoint: Papp (×10⁻⁶ cm/s)
Give bare numbers, in ×10⁻⁶ cm/s.

# Papp of `CO[C@]12CC[C@@]3(C[C@@H]1[C@](C)(O)C(C)(C)C)[C@H]1Cc4ccc(O)c5c4[C@@]3(CCN1CC1CC1)[C@H]2O5` = 58.3

----------
assayRemarks: physchem
Assay type: physicochemical
conditionLabel: equilibrium pH 7.9, 32° C.; read-out: Cs
experimentalEndpoint: solubility thermodynamic (µg/mL)
Answers are plain numbers, in µg/mL.

solubility thermodynamic reported for this compound `CO[C@]12CC[C@@]3(C[C@@H]1[C@](C)(O)C(C)(C)C)[C@H]1Cc4ccc(O)c5c4[C@@]3(CCN1CC1CC1)[C@H]2O5` : 0.6

----------
assayRemarks: physchem
Type: physicochemical
conditionLabel: equilibrium pH 6.0, 32° C.; read-out: Cs
experimentalEndpoint: solubility thermodynamic (µg/mL)
Numbers only, in µg/mL.

Note to self: solubility thermodynamic recorded for `CO[C@]12CC[C@@]3(C[C@@H]1[C@](C)(O)C(C)(C)C)[C@H]1Cc4ccc(O)c5c4[C@@]3(CCN1CC1CC1)[C@H]2O5` was 82

----------
assayRemarks: physchem
Assay type: physicochemical
conditionLabel: organic solvent or mixture; Isopropyl myristate, 32° C.; read-out: Solubility
experimentalEndpoint: solubility

For this molecule ( `CO[C@]12CC[C@@]3(C[C@@H]1[C@](C)(O)C(C)(C)C)[C@H]1Cc4ccc(O)c5c4[C@@]3(CCN1CC1CC1)[C@H]2O5` ), measured solubility is 13.3 mg/mL

----------
assayRemarks: physchem
Assay type: physicochemical
conditionLabel: organic solvent or mixture; Ethanol (absolute), 32° C.; read-out: Solubility
experimentalEndpoint: solubility (mg/mL)
One number for each entry, in mg/mL.

Form: compound = `CO[C@]12CC[C@@]3(C[C@@H]1[C@](C)(O)C(C)(C)C)[C@H]1Cc4ccc(O)c5c4[C@@]3(CCN1CC1CC1)[C@H]2O5` ; solubility = 58.4

----------
assayRemarks: physchem
Assay type: physicochemical
conditionLabel: organic solvent or mixture; Propylene Glycol, 32° C.; read-out: Solubility
experimentalEndpoint: solubility (µg/mL)
Answers are plain numbers, in µg/mL.

Sample `CO[C@]12CC[C@@]3(C[C@@H]1[C@](C)(O)C(C)(C)C)[C@H]1Cc4ccc(O)c5c4[C@@]3(CCN1CC1CC1)[C@H]2O5` ; solubility observed: 5100

----------
assayRemarks: physchem
Format: physicochemical
conditionLabel: equilibrium pH 5.0, 32° C.; read-out: Cs
experimentalEndpoint: solubility thermodynamic (µg/mL)
Answers are plain numbers, in µg/mL.

Entry `CO[C@]12CC[C@@]3(C[C@@H]1[C@](C)(O)C(C)(C)C)[C@H]1Cc4ccc(O)c5c4[C@@]3(CCN1CC1CC1)[C@H]2O5` — recorded solubility thermodynamic = 692

----------
assayRemarks: physchem
Format: physicochemical
conditionLabel: Water (deionized), 32° C.; read-out: Solubility
experimentalEndpoint: solubility (µg/mL)
Answers are plain numbers, in µg/mL.

Reported solubility of `CO[C@]12CC[C@@]3(C[C@@H]1[C@](C)(O)C(C)(C)C)[C@H]1Cc4ccc(O)c5c4[C@@]3(CCN1CC1CC1)[C@H]2O5` : 8

----------
assayRemarks: physchem
Assay type: physicochemical
conditionLabel: equilibrium pH 7.0, 32° C.; read-out: Cs
experimentalEndpoint: solubility thermodynamic (µg/mL)
Give bare numbers, in µg/mL.

response.value for `CO[C@]12CC[C@@]3(C[C@@H]1[C@](C)(O)C(C)(C)C)[C@H]1Cc4ccc(O)c5c4[C@@]3(CCN1CC1CC1)[C@H]2O5` (field: solubility thermodynamic) = 6

----------
assayRemarks: Octanol-water partition coefficient
Counter-ions that a name gives are not always drawn.
Kindly state logP for each of the entries shown.
Numbers only.

Record logP per entry; entries follow.
1. CO[C@@]12CC[C@@]3(C[C@@H]1[C@](C)(O)C(C)(C)C)[C@H]1Cc4ccc(O)c5c4[C@@]3(CCN1CC1CC1)[C@H]2O5 [Buprenorphine HCl]
2. CO[C@]12CC[C@@]3(C[C@@H]1[C@](C)(O)C(C)(C)C)[C@H]1Cc4ccc(O)c5c4[C@@]3(CCN1CC1CC1)[C@H]2O5

Result:
[2.63, 3.09]

----------
assayRemarks: in vitro
Format: in vitro ADME, Human
conditionLabel: human; equilibrium pH 7.0, 32° C.; P = J/Cs; read-out: P (permeability coefficient) (converted)
Description: Stirring was set at 200 rpm throughout the experiment. […] The samples were assayed by HPLC.
experimentalEndpoint: Papp (×10⁻⁶ cm/s)
Give bare numbers, in ×10⁻⁶ cm/s.

// sample `CO[C@]12CC[C@@]3(C[C@@H]1[C@](C)(O)C(C)(C)C)[C@H]1Cc4ccc(O)c5c4[C@@]3(CCN1CC1CC1)[C@H]2O5` , its Papp was 6.39
